These measurements were taken from paper PMC9482650.

tgt: T1, NHERF3_1, Q5T2W1
T1 sequence (Q5T2W1 4-100, limits assumed, looked up): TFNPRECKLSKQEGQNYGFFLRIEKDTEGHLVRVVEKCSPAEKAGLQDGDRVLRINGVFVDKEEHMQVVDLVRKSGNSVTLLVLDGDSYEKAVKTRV
assay: holdup assay
Parameters: key: below the threshold = too weak to quantify, mostly under pKd 3.1 to 4
run-parameters: plain residues with an end cap or a label only (N-terminal biotin on a linker: ado-ado)
endpoint: pKd
One number for each entry.

Please review the entries below; each comes with its answer.
[
  {
    "binder": "RSSGGDDFWF [KCNV1, Q6PIU1]",
    "numeric-value": 4.08
  },
  {
    "binder": "APIAGFSSFV [SDK2, Q58EX2]",
    "numeric-value": 5.08
  },
  {
    "binder": "ARGPPRESEV [FAM110D, Q8TAY7]",
    "numeric-value": 4.03
  }
]

The value of pKd measured for the binder AEASVACSLC [PTGIR, P43119] turned out to be 4.51
